# reported microsomal CLint at 1 µM; entries follow
# protocol-details: LM CLint (microsomal stability), mouse
# Type: in vitro ADME
# experimental-context: microsomes, 1 μm, read-out: CLint Microsomes, Mouse (m)
# number only, unit µL/min/mg dropped from output

Below are worked cases with known answers.
smiles-record: CCc1nc2ncc(C)cn2c1C(=O)NCc1ccc(-c2nc3n(n2)CCN(S(=O)(=O)N2CCCC2)C3)cc1
microsomal CLint at 1 µM / µL/min/mg: 13.9
--
smiles-record: Cc1cnc2nc(C3CC3)c(C(=O)NCc3ccc(-c4cc5n(n4)CCN(S(=O)(=O)C(C)C)C5)cc3)n2c1
microsomal CLint at 1 µM / µL/min/mg: 83.4
--
smiles-record: CCc1nc2ccc(C)cn2c1C(=O)NCc1ccc(-c2cc3n(n2)CCN(S(=O)(=O)C(F)(F)F)C3)cc1
microsomal CLint at 1 µM / µL/min/mg: 74.8

Supply recorded microsomal CLint at 1 µM for CCc1nc2ncc(C)cn2c1C(=O)NCc1ccc(-c2cc3n(n2)CCN(S(=O)(=O)C(F)(F)F)C3)nc1 here. 9.29

These entries and their values trace back to patent US20240199651A1.
